Molecular target: T1, human plasma Kallikrein (human, UniProt P03952 20-638, limits assumed)
T1 construct: also called hPK; human PK
T1 sequence (P03952 20-638 limits assumed): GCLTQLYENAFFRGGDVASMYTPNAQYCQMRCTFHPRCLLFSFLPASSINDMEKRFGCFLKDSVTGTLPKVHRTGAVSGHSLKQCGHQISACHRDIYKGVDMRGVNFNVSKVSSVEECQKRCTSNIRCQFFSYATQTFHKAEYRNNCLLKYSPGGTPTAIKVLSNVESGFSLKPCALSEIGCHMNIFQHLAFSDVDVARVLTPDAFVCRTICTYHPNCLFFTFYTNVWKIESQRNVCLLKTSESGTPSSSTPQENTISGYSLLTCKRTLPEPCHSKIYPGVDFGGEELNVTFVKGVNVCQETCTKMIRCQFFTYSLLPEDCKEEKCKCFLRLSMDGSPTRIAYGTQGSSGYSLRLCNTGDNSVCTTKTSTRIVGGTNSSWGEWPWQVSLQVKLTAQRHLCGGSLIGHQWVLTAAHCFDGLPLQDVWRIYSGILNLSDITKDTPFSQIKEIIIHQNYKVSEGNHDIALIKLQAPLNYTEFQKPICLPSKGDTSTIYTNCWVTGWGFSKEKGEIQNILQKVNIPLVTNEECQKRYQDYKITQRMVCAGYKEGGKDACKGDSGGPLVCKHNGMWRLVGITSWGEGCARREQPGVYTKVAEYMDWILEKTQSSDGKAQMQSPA
Assay: enzyme inhibition assay
Numbered stars: 1 amine (or outer) side, 2 acyl side, 3 side chain; on linkers, the order of the positions; unused ones are H or OH. Bridge positions count the residues as written; N and C are the ends. Ends that are not written are not given here. TBMB = c1c(C[*:1])cc(C[*:3])cc1C[*:2]
Each entry below lists one item and its recorded IC50 value.
Your answer is read as nM, so omit the unit and give the number.

In [3]: df
Out[3]:
                                     binder  measured_parameter  result_number
0  ACSWPARCVHQDLCA (linker 2-8-14 via TBMB; not fully specified (N-terminus, C-terminus)) [06-34-01]                IC50           0.15
1  ACSWPARCTHQDLCA (linker 2-8-14 via TBMB; not fully specified (N-terminus, C-terminus)) [06-34-03 (01 + 02)]                IC50          0.082
2  ACRWPARCLHQDLCA (linker 2-8-14 via TBMB; not fully specified (N-terminus, C-terminus)) [06-34-05]                IC50          0.076
3  ACSWPARCMHQDLCA (linker 2-8-14 via TBMB; not fully specified (N-terminus, C-terminus)) [06-34-17 (01 + 04)]                IC50          0.073
4  ACRWPARCMHQDLCA (linker 2-8-14 via TBMB; not fully specified (N-terminus, C-terminus)) [06-34-04]                IC50          0.075
5  ACSWPARCLHQDLCA (linker 2-8-14 via TBMB; not fully specified (N-terminus, C-terminus)) [06-34-18 (01 + 05)]                IC50           0.07

Consider the record given below.
Can you share its IC50? I mean this binder: ACRWPARCTHQDLCA (linker 2-8-14 via TBMB; not fully specified (N-terminus, C-terminus)) [06-34-02] 0.16
